The entries below come with measured pIC50 values attached.
Molecular target: Tubulin (Bos taurus, UniProt Q6B856+Q862L2+Q862F3)
Assay: Inhibition of bovine brain tubulin polymerization incubated for 20 mins by spectrophotometry
Just the number, please, no unit attached.

Some compounds with known pIC50 results, for comparison:
Cc1ccc(-c2cc(NC(=O)/C=C/c3ccc([N+](=O)[O-])cc3)n[nH]2)cc1: 5.79
COc1ccc(/C=C/C(=O)Nc2cc(-c3ccc(C)cc3)[nH]n2)cc1: 5.754
Cc1ccc(-c2cc(NC(=O)/C=C/c3ccc(Cl)cc3)n[nH]2)cc1: 5.668

The compound listed as O=C(/C=C\c1ccc(C(F)(F)F)cc1)Nc1cc(-c2ccccc2)[nH]n1 shows pIC50 equal to 5.873

The compound listed as COc1ccc(/C=C\C(=O)Nc2cc(-c3ccccc3)[nH]n2)cc1 shows pIC50 equal to 5.785

The compound listed as O=C(/C=C/c1ccc(Cl)cc1)Nc1cc(-c2ccc(Br)cc2)[nH]n1 shows pIC50 equal to 5.71

Hey, just so you know, these numbers are from ChEMBL document CHEMBL3407470.
